All figures here come from paper PMC5038265.

# ASSAY METHOD TEXT: in vivo
# STATED CONDITIONS: mouse, in vivo, iv, 30 mg/kg
# Vd values compiled below
Please state the figure in L/kg; there is no need to write the unit.

Some solved cases for reference:
1. CCOc1ccc(Cl)c2c1B(O)O[C@@H]2CN | 3.14
2. CCOc1ccc(Br)c2c1B(O)O[C@@H]2CN | 3.22
3. CCOc1cccc2c1B(O)O[C@@H]2CN | 2.12

Task: Please supply the value of reported Vd for the item CCOc1ccc(F)c2c1B(O)O[C@@H]2CN
Output: 3.81

* * *

# ASSAY METHOD TEXT: in vivo
# STATED CONDITIONS: female, CD-1, mouse, in vivo, iv, 15 mg/kg
ASSAY READOUT: AUC(0-inf) (ng·h/mL)
State just the number; it will be interpreted in ng·h/mL.

Task: Retrieve AUC(0-inf) measured for CCOc1ccc(Br)c2c1B(O)OC2CN (stereo not shown) and print it.
Output: 45800
